tested on: Lewis lung carcinoma i.m., BDF1 mice, T/C %; test: NCI In Vivo Anticancer Drug Screen. Data for tumor model Lewis Lung Carcinoma (intramuscular) in B6D2F1 (BDF1) mice; details: endpoint: median survival time; dose: 100.0 mg/kg/injection; schedule: Q01DX011 (ip); vehicle: saline; higher = longer survival
Records with an inconclusive call do not appear.
PROPERTY_LABEL: T/C

NC1CONC1=O (stereo not given) = 106 % of control

Give T/C for all molecules that follow.
1. CN(N=O)C(=O)N[C@@H](C=O)[C@@H](O)[C@H](O)[C@H](O)CO
2. C/C(=C\COc1ccc2ccc(=O)oc2c1)C1=CC(=O)C(C)(C)O1
3. CSc1ncnc2nc[nH]c12
4. CCCCN(C)C(=S)S[Te](SC(=S)N(C)CCCC)(SC(=S)N(C)CCCC)SC(=S)N(C)CCCC

Out:
1: 92 % of control; 2: 108 % of control; 3: 105 % of control; 4: 114 % of control

###

Give measured T/C for each item. Keep answers brief.
tested on: Lewis lung carcinoma i.m., BDF1 mice, T/C %; experiment: NCI In Vivo Anticancer Drug Screen. Data for tumor model Lewis Lung Carcinoma (intramuscular) in B6D2F1 (BDF1) mice; conditions: endpoint: median survival time; dose: 2.0 mg/kg/injection; schedule: Q01DX011 (ip); vehicle: saline; higher = longer survival
Records with an inconclusive call do not appear.

Take a look at these entries with their results.
CC(=O)OC1C(=O)C(O)C(C)OC1O[C@@H]1C[C@@]2(C)[C@@H]3CC=C4[C@@H](C[C@H](O)C(=O)C4(C)C)[C@]3(C)C(=O)C[C@]2(C)[C@H]1[C@@](C)(O)C(=O)/C=C/C(C)(C)O (some centres undefined) = 91 % of control
CCCCCCCCCCCC[S+](C)C = 100 % of control
COc1cc([C@@H]2c3cc4c(cc3[C@@H](OC3OC5COC(C)OC5C(O)C3O)[C@H]3COC(=O)[C@H]23)OCO4)cc(OC)c1O (some centres undefined) = 107 % of control

Attention now shifts to the item below.
Documented T/C of OC(C1CO1)C(O)C1CO1 (centres undefined) : 108 % of control

###

test system: Lewis lung carcinoma i.m., BDF1 mice, T/C %; experiment: NCI In Vivo Anticancer Drug Screen. Data for tumor model Lewis Lung Carcinoma (intramuscular) in B6D2F1 (BDF1) mice; conditions: endpoint: mean tumor weight (est.); dose: 12.5 mg/kg/injection; schedule: Q01DX011 (ip); vehicle: saline; higher = larger tumour
Inconclusive results are not listed.
PROPERTY_LABEL: T/C

Take a look at these entries with their results.
COC(=O)[CH](C[N+](=O)[O-])[Hg][Cl] (stereo not given) = 71 % of control
CNc1ccc(O)cc1 = 97 % of control
Cc1cc[n+](CCc2ccccc2)cc1 = 76 % of control

Give T/C for all molecules that follow.
1. CCN1c2ccccc2C(Cl)(c2ccc(N(C)C)cc2)c2ccccc21
2. OC1CCCC2CCC[N-]C12.OC1CCCC2CCC[N-]C12.[O]=[V][OH] (stereo not given)

Out:
1: 47 % of control; 2: 70 % of control

###

Give measured T/C for each item. Keep answers brief.
test system: Lewis lung carcinoma i.m., BDF1 mice, T/C %; test: NCI In Vivo Anticancer Drug Screen. Data for tumor model Lewis Lung Carcinoma (intramuscular) in B6D2F1 (BDF1) mice; conditions: endpoint: median survival time; dose: 0.25 mg/kg/injection; schedule: Q01DX011 (ip); vehicle: saline; higher = longer survival
Inconclusive results are not listed.

Take a look at these entries with their results.
COc1cc2c(c(OC)c1OC)-c1ccc(OC)c(=O)cc1[C@@H](NC=O)CC2 = 90 % of control
C1CN1c1nc(N2CC2)nc(N2CC2)n1 = 110 % of control
CCCCCCCCCCCC(c1ccccc1)[N+](C)(C)Cc1ccccc1 (stereo not drawn) = 87 % of control
COc1cc([C@@H]2c3cc4c(cc3[C@@H](OC3OC5COC(C)OC5C(O)C3O)[C@H]3COC(=O)[C@H]23)OCO4)cc(OC)c1O (stereo partly drawn) = 96 % of control
COc1cc([C@@H]2c3cc4c(cc3[C@@H](OC3OC5CO[C@@H](c6cccs6)OC5C(O)C3O)[C@H]3COC(=O)[C@H]23)OCO4)cc(OC)c1O (stereo partly drawn) = 118 % of control

Give T/C for all molecules that follow.
1. CO[C@@]12[C@H](COC(N)=O)C3=C(C(=O)C(C)=C(N)C3=O)N1C[C@@H]1N[C@@H]12
2. COC(=O)C[C@](O)(CCC(C)(C)O)C(=O)O[C@@H]1C(OC)=C[C@]23CCCN2CCc2cc4c(cc2[C@H]13)OCO4
3. COC(=O)C[C@](O)(CCCC(C)(C)O)C(=O)O[C@@H]1C(OC)=C[C@]23CCCN2CCc2cc4c(cc2[C@H]13)OCO4

Out:
112 % of control
114 % of control
93 % of control

Sourced from PubChem BioAssay AID272
